Test system: K. baumanii 4095
Method notes: MIC against K. baumanii 4095
Type: cell-based
Experimental parameters: Table 2; K. baumanii 4095, OXA-48; in combination with NXL-104
Endpoint: MIC (µg/mL)
Numbers only, in µg/mL.

Q: MIC lookup needed for CC(C)(O/N=C(\C(=O)N[C@@H]1C(=O)N2C(C(=O)[O-])=C(C[n+]3ccc4n3CCN4Cc3ccc(C(=N)N)cc3)CS[C@H]12)c1csc(N)n1)C(=O)O , thanks.
A: 0.25

Q: MIC lookup needed for CC(C)(O/N=C(\C(=O)N[C@@H]1C(=O)N2C(C(=O)[O-])=C(C[n+]3ccc4c(ccn4Cc4cc(C(=N)N)co4)c3)CS[C@H]12)c1csc(N)n1)C(=O)O , thanks.
A: 0.25

Q: MIC lookup needed for CC(C)(O/N=C(\C(=O)N[C@@H]1C(=O)N2C(C(=O)[O-])=C(C[n+]3ccccc3)CS[C@H]12)c1csc(N)n1)C(=O)O [CAZ, ceftazidime, reference compound] , thanks.
A: 0.50

Now for another entry.
Q: MIC lookup needed for CC(C)(O/N=C(\C(=O)N[C@@H]1C(=O)N2C(C(=O)[O-])=C(C[n+]3ccc4c(ccn4Cc4cc(C(=N)N)cs4)c3)CS[C@H]12)c1csc(N)n1)C(=O)O , thanks.
A: 0.25

====

Tested on: K. pneumoniae 4104
Method notes: MIC against K. pneumoniae 4104
Type: cell-based
Experimental parameters: Klebsiella pneumoniae, 4104, Table 2; K. pneumoniae 4104, KPC-3, TEM-1; alone; read-out: MIC
Consider the following molecules; for each one, report its MIC.
One number for each entry, in µg/mL.

Q: For the record CC(C)(O/N=C(\C(=O)N[C@@H]1C(=O)N2C(C(=O)[O-])=C(C[n+]3ccc4c(ccn4Cc4cc(C(=N)N)cs4)c3)CS[C@H]12)c1csc(N)n1)C(=O)O [Example 5] , what value of MIC is listed for K. pneumoniae 4104?
A: 32

Q: For the record CC(C)(O/N=C(\C(=O)N[C@@H]1C(=O)N2C(C(=O)[O-])=C(C[n+]3ccc4n3CCN4Cc3ccc(C(=N)N)cc3)CS[C@H]12)c1csc(N)n1)C(=O)O [Example 2] , what value of MIC is listed for K. pneumoniae 4104?
A: 8

Q: For the record CC(C)(O/N=C(\C(=O)N[C@@H]1C(=O)N2C(C(=O)[O-])=C(C[n+]3ccc4c(ccn4Cc4cc(C(=N)N)co4)c3)CS[C@H]12)c1csc(N)n1)C(=O)O [Example 6] , what value of MIC is listed for K. pneumoniae 4104?
A: 32

Further cases:
Q: For the record CC(C)(O/N=C(\C(=O)N[C@@H]1C(=O)N2C(C(=O)[O-])=C(C[n+]3ccc4c(ccn4Cc4ccc(C(=N)N)cc4)c3)CS[C@H]12)c1csc(N)n1)C(=O)O [Ex-1] , what value of MIC is listed for K. pneumoniae 4104?
A: 16

====

Test system: S. pneumoniae 2405
Method notes: MIC against S. pneumoniae 2405
Format: cell-based
Experimental parameters: Table 2; S. pneumoniae 2405, Pen S; in combination with NXL-104
Endpoint: MIC

Q: MIC lookup needed for CC(C)(O/N=C(\C(=O)N[C@@H]1C(=O)N2C(C(=O)[O-])=C(C[n+]3ccc4c(ccn4Cc4cc(C(=N)N)co4)c3)CS[C@H]12)c1csc(N)n1)C(=O)O , thanks.
A: ≤0.06 µg/mL

Q: MIC lookup needed for CC(C)(O/N=C(\C(=O)N[C@@H]1C(=O)N2C(C(=O)[O-])=C(C[n+]3ccc4n3CCN4Cc3ccc(C(=N)N)cc3)CS[C@H]12)c1csc(N)n1)C(=O)O , thanks.
A: ≤0.06 µg/mL

Q: MIC lookup needed for CC(C)(O/N=C(\C(=O)N[C@@H]1C(=O)N2C(C(=O)[O-])=C(C[n+]3ccc4c(ccn4Cc4cc(C(=N)N)cs4)c3)CS[C@H]12)c1csc(N)n1)C(=O)O , thanks.
A: ≤0.06 µg/mL

Further cases:
Q: MIC lookup needed for CC(C)(O/N=C(\C(=O)N[C@@H]1C(=O)N2C(C(=O)[O-])=C(C[n+]3ccccc3)CS[C@H]12)c1csc(N)n1)C(=O)O [CAZ, ceftazidime, reference compound] , thanks.
A: 0.25 µg/mL

====

System: K. pneumoniae 4107
Method notes: MIC against K. pneumoniae 4107
Type: cell-based
Experimental parameters: Table 2; K. pneumoniae 4107, KPC-2, TEM-1, SHV-11; in combination with NXL-104
Method: As shown, the foregoing composition was tested for minimum inhibitory concentration (MIC, μg/mL) against bacteria listed in Tables 2-3.
Endpoint: MIC (µg/mL)
One number for each entry, in µg/mL.

# example entries with known answers
Q: MIC lookup needed for CC(C)(O/N=C(\C(=O)N[C@@H]1C(=O)N2C(C(=O)[O-])=C(C[n+]3ccc4n3CCN4Cc3ccc(C(=N)N)cc3)CS[C@H]12)c1csc(N)n1)C(=O)O , thanks.
A: 4.00

Q: MIC lookup needed for CC(C)(O/N=C(\C(=O)N[C@@H]1C(=O)N2C(C(=O)[O-])=C(C[n+]3ccc4c(ccn4Cc4cc(C(=N)N)cs4)c3)CS[C@H]12)c1csc(N)n1)C(=O)O , thanks.
A: 2.00

For every record below, what is its MIC?
1. CC(C)(O/N=C(\C(=O)N[C@@H]1C(=O)N2C(C(=O)[O-])=C(C[n+]3ccc4c(ccn4Cc4cc(C(=N)N)co4)c3)CS[C@H]12)c1csc(N)n1)C(=O)O
2. CC(C)(O/N=C(\C(=O)N[C@@H]1C(=O)N2C(C(=O)[O-])=C(C[n+]3ccccc3)CS[C@H]12)c1csc(N)n1)C(=O)O [CAZ, ceftazidime, reference compound]

A:
1: 2.00; 2: 8.00

====

Tested on: S. aureus 3136
Method notes: MIC against S. aureus 3136
Assay type: cell-based
Experimental parameters: Table 2; S. aureus 3136, MSSA; in combination with NXL-104
Consider the following molecules; for each one, report its MIC.
Numbers only, in µg/mL.

# example entries with known answers
Q: For the record CC(C)(O/N=C(\C(=O)N[C@@H]1C(=O)N2C(C(=O)[O-])=C(C[n+]3ccccc3)CS[C@H]12)c1csc(N)n1)C(=O)O [CAZ, ceftazidime, reference compound] , what value of MIC is listed for S. aureus 3136?
A: 8.00

Q: For the record CC(C)(O/N=C(\C(=O)N[C@@H]1C(=O)N2C(C(=O)[O-])=C(C[n+]3ccc4c(ccn4Cc4cc(C(=N)N)cs4)c3)CS[C@H]12)c1csc(N)n1)C(=O)O , what value of MIC is listed for S. aureus 3136?
A: 2.00

Q: For the record CC(C)(O/N=C(\C(=O)N[C@@H]1C(=O)N2C(C(=O)[O-])=C(C[n+]3ccc4n3CCN4Cc3ccc(C(=N)N)cc3)CS[C@H]12)c1csc(N)n1)C(=O)O , what value of MIC is listed for S. aureus 3136?
A: 2.00

Now for another entry.
Q: For the record CC(C)(O/N=C(\C(=O)N[C@@H]1C(=O)N2C(C(=O)[O-])=C(C[n+]3ccc4c(ccn4Cc4cc(C(=N)N)co4)c3)CS[C@H]12)c1csc(N)n1)C(=O)O , what value of MIC is listed for S. aureus 3136?
A: 4.00

====

Consider the following compounds; for each one, report its MIC.
Tested on: E. coli 4103
Method notes: MIC against E. coli 4103
Assay type: cell-based
Experimental parameters: Table 3; E. coli 4103, KPC-2, TEM-1, CMY-type; in combination with NXL-104
Answers are plain numbers, in µg/mL.

# example entries with known answers
Q: MIC lookup needed for CO/N=C(\C(=O)N[C@@H]1C(=O)N2C(C(=O)[O-])=C(C[n+]3ccc4c(ccn4Cc4cc(C(=N)Nc5nccs5)cs4)c3)CS[C@H]12)c1nc(N)sc1Cl , thanks.
A: 8

Q: MIC lookup needed for CC(C)(O/N=C(\C(=O)N[C@@H]1C(=O)N2C(C(=O)[O-])=C(C[n+]3ccc4c(ccn4Cc4cc(C(=N)N)cs4)c3)CS[C@H]12)c1csc(N)n1)C(=O)O , thanks.
A: 4

Q: MIC lookup needed for CC(C)(O/N=C(\C(=O)N[C@@H]1C(=O)N2C(C(=O)[O-])=C(C[n+]3ccc4c(ccn4Cc4cc(C(=N)N)co4)c3)CS[C@H]12)c1csc(N)n1)C(=O)O , thanks.
A: 4

Q: MIC lookup needed for CO/N=C(\C(=O)N[C@@H]1C(=O)N2C(C(=O)[O-])=C(C[n+]3ccc4c(ccn4Cc4cc(C(=N)Nc5ccccc5)cs4)c3)CS[C@H]12)c1nc(N)sc1Cl , thanks.
A: 4

Q: MIC lookup needed for CC(C)(O/N=C(\C(=O)N[C@@H]1C(=O)N2C(C(=O)[O-])=C(C[n+]3ccc4n3CCN4Cc3ccc(C(=N)N)cc3)CS[C@H]12)c1csc(N)n1)C(=O)O , thanks.
A: 8

Q: MIC lookup needed for CC(C)(O/N=C(\C(=O)N[C@@H]1C(=O)N2C(C(=O)[O-])=C(C[n+]3ccc4n(Cc5ccc(C(=N)N)cc5)ccn43)CS[C@H]12)c1csc(N)n1)C(=O)O , thanks.
A: 8

Further cases:
Q: MIC lookup needed for CC(C)(O/N=C(\C(=O)N[C@@H]1C(=O)N2C(C(=O)[O-])=C(C[n+]3ccccc3)CS[C@H]12)c1csc(N)n1)C(=O)O [CAZ, ceftazidime, reference compound] , thanks.
A: 16

Value source: patent USRE48097E1
